Target: NIM1 (human)
Experiment: Caliper, Mobility shift assay off-chip
Conditions: compound 0.2 µM
measurementKind: inhibition (%)
Report as a plain number; the unit % is understood.

Summary for this compound, Cc1ccc(Nc2nccc(N(C)c3ccc4c(C)n(C)nc4c3)n2)cc1S(N)(=O)=O : inhibition is 10.4

Summary for this compound, CCN(CC)CCNC(=O)c1c(C)[nH]c(/C=C2\C(=O)Nc3ccc(F)cc32)c1C : inhibition is 17.9

Summary for this compound, CNC(=O)c1cc(Oc2ccc(NC(=O)Nc3ccc(Cl)c(C(F)(F)F)c3)cc2)ccn1 : inhibition is 6.4

Summary for this compound, COc1cc2c(Oc3ccc4[nH]c(C)cc4c3F)ncnc2cc1OCCCN1CCCC1 : inhibition is -9.8

----------
Target: PRKCQ (human)
Assay: Caliper, Mobility shift assay off-chip
Details: compound 0.02 µM
Recorded inhibition by entry

Cc1ccc(Nc2nccc(N(C)c3ccc4c(C)n(C)nc4c3)n2)cc1S(N)(=O)=O; 1.7%

Summary for this compound, CNC(=O)c1ccccc1Sc1ccc2c(/C=C/c3ccccn3)n[nH]c2c1 : inhibition is -1.9%

Summary for this compound, CNC(=O)c1cc(Oc2ccc(NC(=O)Nc3ccc(Cl)c(C(F)(F)F)c3)cc2)ccn1 : inhibition is 1.3%

Summary for this compound, COc1cc2c(Oc3ccc4[nH]c(C)cc4c3F)ncnc2cc1OCCCN1CCCC1 : inhibition is 8.9%

----------
Recorded inhibition by entry
Target: TEC (human)
Experiment: Caliper, Mobility shift assay off-chip
Settings: compound 0.02 µM
Report as a plain number; the unit % is understood.

CNC(=O)c1ccccc1Sc1ccc2c(/C=C/c3ccccn3)n[nH]c2c1; -3.2
CNC(=O)c1cc(Oc2ccc(NC(=O)Nc3ccc(Cl)c(C(F)(F)F)c3)cc2)ccn1; -6.3
Cc1ccc(Nc2nccc(N(C)c3ccc4c(C)n(C)nc4c3)n2)cc1S(N)(=O)=O; 4.8

--- query ---
Summary for this compound, COc1cc2c(Oc3ccc4[nH]c(C)cc4c3F)ncnc2cc1OCCCN1CCCC1 : inhibition is 4.5

----------
Recorded inhibition by entry
Target: MARK2 (human) (UniProt Q7KZI7)
Sequence (Q7KZI7 whole entry, looked up): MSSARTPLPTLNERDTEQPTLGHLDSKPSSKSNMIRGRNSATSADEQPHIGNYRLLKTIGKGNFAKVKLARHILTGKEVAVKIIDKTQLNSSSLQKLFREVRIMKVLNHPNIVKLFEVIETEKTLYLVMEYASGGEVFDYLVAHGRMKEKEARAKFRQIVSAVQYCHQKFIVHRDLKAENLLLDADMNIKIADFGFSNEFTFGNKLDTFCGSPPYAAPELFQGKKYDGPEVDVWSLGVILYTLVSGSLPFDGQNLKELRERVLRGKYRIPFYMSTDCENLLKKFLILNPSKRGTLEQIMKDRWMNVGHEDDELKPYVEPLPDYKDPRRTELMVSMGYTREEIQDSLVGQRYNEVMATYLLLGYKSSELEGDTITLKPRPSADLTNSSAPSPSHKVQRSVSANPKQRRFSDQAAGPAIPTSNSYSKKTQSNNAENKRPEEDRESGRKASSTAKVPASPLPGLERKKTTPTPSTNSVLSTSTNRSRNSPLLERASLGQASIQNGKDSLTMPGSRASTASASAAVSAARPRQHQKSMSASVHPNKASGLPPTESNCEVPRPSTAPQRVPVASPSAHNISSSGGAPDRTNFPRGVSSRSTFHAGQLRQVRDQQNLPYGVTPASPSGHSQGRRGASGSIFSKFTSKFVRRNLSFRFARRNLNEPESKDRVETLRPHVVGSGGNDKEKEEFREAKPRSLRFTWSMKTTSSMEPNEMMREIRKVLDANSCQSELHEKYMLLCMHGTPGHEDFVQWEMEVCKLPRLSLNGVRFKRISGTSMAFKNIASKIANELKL
Test: Caliper, Mobility shift assay off-chip
Conditions: compound 0.02 µM
Report as a plain number; the unit % is understood.

Some solved entries appear below for comparison.
COc1cc2c(Oc3ccc4[nH]c(C)cc4c3F)ncnc2cc1OCCCN1CCCC1; 6.9
CNC(=O)c1ccccc1Sc1ccc2c(/C=C/c3ccccn3)n[nH]c2c1; 11.8
Cc1ccc(Nc2nccc(N(C)c3ccc4c(C)n(C)nc4c3)n2)cc1S(N)(=O)=O; 9.3

Summary for this compound, CNC(=O)c1cc(Oc2ccc(NC(=O)Nc3ccc(Cl)c(C(F)(F)F)c3)cc2)ccn1 : inhibition is -10.6

----------
Target: NEK7 (human)
Test: Caliper, Mobility shift assay off-chip
Settings: compound 0.02 µM
measurementKind: inhibition (%)
Report as a plain number; the unit % is understood.

Some solved entries appear below for comparison.
Cc1ccc(Nc2nccc(N(C)c3ccc4c(C)n(C)nc4c3)n2)cc1S(N)(=O)=O; -2.9
CNC(=O)c1cc(Oc2ccc(NC(=O)Nc3ccc(Cl)c(C(F)(F)F)c3)cc2)ccn1; -3.3
CNC(=O)c1ccccc1Sc1ccc2c(/C=C/c3ccccn3)n[nH]c2c1; -4.1

--- query ---
Summary for this compound, COc1cc2c(Oc3ccc4[nH]c(C)cc4c3F)ncnc2cc1OCCCN1CCCC1 : inhibition is -3.6

----------
Recorded inhibition by entry
Target: IRAK1 (human) (UniProt P51617)
Sequence (P51617 whole entry, looked up): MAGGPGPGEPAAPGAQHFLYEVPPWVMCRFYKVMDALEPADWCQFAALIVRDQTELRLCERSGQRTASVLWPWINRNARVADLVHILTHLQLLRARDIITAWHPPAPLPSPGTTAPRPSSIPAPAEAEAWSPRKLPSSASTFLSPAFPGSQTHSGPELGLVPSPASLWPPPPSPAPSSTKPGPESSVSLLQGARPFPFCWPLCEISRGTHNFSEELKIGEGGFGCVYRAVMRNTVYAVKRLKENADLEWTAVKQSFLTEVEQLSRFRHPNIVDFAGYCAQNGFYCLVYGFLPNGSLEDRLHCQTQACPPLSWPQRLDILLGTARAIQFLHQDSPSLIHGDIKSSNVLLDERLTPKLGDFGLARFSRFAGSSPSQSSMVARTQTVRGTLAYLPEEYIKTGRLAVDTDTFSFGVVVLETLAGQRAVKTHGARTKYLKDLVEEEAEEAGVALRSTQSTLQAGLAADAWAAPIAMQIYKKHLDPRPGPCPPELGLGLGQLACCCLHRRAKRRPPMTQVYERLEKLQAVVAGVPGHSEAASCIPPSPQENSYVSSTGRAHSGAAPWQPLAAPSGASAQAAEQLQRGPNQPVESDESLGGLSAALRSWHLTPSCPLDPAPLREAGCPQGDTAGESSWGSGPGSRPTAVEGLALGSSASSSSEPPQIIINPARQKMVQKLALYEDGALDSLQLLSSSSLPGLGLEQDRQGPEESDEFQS
Test: Caliper, Mobility shift assay off-chip
Details: compound 0.2 µM
Report as a plain number; the unit % is understood.

Cc1ccc(Nc2nccc(N(C)c3ccc4c(C)n(C)nc4c3)n2)cc1S(N)(=O)=O; -14.6
COc1cc2c(Oc3ccc4[nH]c(C)cc4c3F)ncnc2cc1OCCCN1CCCC1; -7.5
CNC(=O)c1cc(Oc2ccc(NC(=O)Nc3ccc(Cl)c(C(F)(F)F)c3)cc2)ccn1; -7.2

Summary for this molecule, CCN(CC)CCNC(=O)c1c(C)[nH]c(/C=C2\C(=O)Nc3ccc(F)cc32)c1C : inhibition is 68.5

----------
Recorded inhibition by entry
Target: PTK6 (human) (UniProt Q13882)
Sequence (Q13882 whole entry, looked up): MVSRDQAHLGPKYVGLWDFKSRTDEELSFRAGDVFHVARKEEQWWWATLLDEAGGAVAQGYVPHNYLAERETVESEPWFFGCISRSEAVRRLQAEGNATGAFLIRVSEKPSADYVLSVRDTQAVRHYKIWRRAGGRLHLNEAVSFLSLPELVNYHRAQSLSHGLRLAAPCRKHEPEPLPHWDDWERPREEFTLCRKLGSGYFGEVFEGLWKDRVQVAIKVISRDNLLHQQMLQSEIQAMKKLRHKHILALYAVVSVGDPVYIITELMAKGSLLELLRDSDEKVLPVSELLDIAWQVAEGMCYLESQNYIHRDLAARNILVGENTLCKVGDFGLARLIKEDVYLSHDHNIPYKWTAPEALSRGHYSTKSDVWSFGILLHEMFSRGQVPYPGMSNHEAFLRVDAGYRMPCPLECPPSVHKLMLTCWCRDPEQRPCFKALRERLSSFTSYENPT
Test: Caliper, Mobility shift assay off-chip
Conditions: compound 0.2 µM
Report as a plain number; the unit % is understood.

Some solved entries appear below for comparison.
Cc1ccc(Nc2nccc(N(C)c3ccc4c(C)n(C)nc4c3)n2)cc1S(N)(=O)=O; 26.2
CCN(CC)CCNC(=O)c1c(C)[nH]c(/C=C2\C(=O)Nc3ccc(F)cc32)c1C; 17.6
CNC(=O)c1cc(Oc2ccc(NC(=O)Nc3ccc(Cl)c(C(F)(F)F)c3)cc2)ccn1; -0.8

Summary for this compound, COc1cc2c(Oc3ccc4[nH]c(C)cc4c3F)ncnc2cc1OCCCN1CCCC1 : inhibition is 92.1

----------
Target: MAP4K2 (human)
Experiment: Caliper, Mobility shift assay off-chip
Settings: compound 0.2 µM
measurementKind: inhibition
Include the unit right after the number.

Some solved entries appear below for comparison.
COc1cc2c(Oc3ccc4[nH]c(C)cc4c3F)ncnc2cc1OCCCN1CCCC1; 18.4%
CNC(=O)c1cc(Oc2ccc(NC(=O)Nc3ccc(Cl)c(C(F)(F)F)c3)cc2)ccn1; 11.5%
Cc1ccc(Nc2nccc(N(C)c3ccc4c(C)n(C)nc4c3)n2)cc1S(N)(=O)=O; 28.7%

Summary for this molecule, CCN(CC)CCNC(=O)c1c(C)[nH]c(/C=C2\C(=O)Nc3ccc(F)cc32)c1C : inhibition is 69.5%

----------
Biological target: STK10 (human)
Assay: Caliper, Mobility shift assay off-chip
Conditions: compound 0.02 µM
measurementKind: inhibition (%)
Report as a plain number; the unit % is understood.

Summary for this compound, CNC(=O)c1cc(Oc2ccc(NC(=O)Nc3ccc(Cl)c(C(F)(F)F)c3)cc2)ccn1 : inhibition is 3.3

Summary for this compound, CNC(=O)c1ccccc1Sc1ccc2c(/C=C/c3ccccn3)n[nH]c2c1 : inhibition is 21.3

Summary for this compound, Cc1ccc(Nc2nccc(N(C)c3ccc4c(C)n(C)nc4c3)n2)cc1S(N)(=O)=O : inhibition is 8.8

Summary for this compound, COc1cc2c(Oc3ccc4[nH]c(C)cc4c3F)ncnc2cc1OCCCN1CCCC1 : inhibition is 45.1

----------
Biological target: NEK6 (human)
Test: Caliper, Mobility shift assay off-chip
Conditions: compound 0.02 µM
measurementKind: inhibition (%)
Report as a plain number; the unit % is understood.

Some solved entries appear below for comparison.
COc1cc2c(Oc3ccc4[nH]c(C)cc4c3F)ncnc2cc1OCCCN1CCCC1; -4.2
Cc1ccc(Nc2nccc(N(C)c3ccc4c(C)n(C)nc4c3)n2)cc1S(N)(=O)=O; -4.8
CNC(=O)c1cc(Oc2ccc(NC(=O)Nc3ccc(Cl)c(C(F)(F)F)c3)cc2)ccn1; -5

Kindly note: NEK6 (human), CNC(=O)c1ccccc1Sc1ccc2c(/C=C/c3ccccn3)n[nH]c2c1 , inhibition value reported: -5.8

----------
Recorded inhibition by entry
Target: MST4 (human) (UniProt Q9P289)
Sequence (Q9P289 whole entry, looked up): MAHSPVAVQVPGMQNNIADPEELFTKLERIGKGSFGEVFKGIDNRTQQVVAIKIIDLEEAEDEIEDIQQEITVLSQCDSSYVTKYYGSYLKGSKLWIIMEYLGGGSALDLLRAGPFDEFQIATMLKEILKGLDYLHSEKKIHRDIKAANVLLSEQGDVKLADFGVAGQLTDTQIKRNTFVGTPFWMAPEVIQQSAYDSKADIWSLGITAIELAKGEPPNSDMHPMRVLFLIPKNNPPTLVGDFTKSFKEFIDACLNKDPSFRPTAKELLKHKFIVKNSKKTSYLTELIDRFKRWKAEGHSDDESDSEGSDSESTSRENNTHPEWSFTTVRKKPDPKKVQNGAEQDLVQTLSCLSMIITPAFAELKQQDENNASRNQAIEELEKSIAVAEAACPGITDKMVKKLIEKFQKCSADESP
Assay: Caliper, Mobility shift assay off-chip
Conditions: compound 0.02 µM
Report as a plain number; the unit % is understood.

CNC(=O)c1cc(Oc2ccc(NC(=O)Nc3ccc(Cl)c(C(F)(F)F)c3)cc2)ccn1; -5.7
Cc1ccc(Nc2nccc(N(C)c3ccc4c(C)n(C)nc4c3)n2)cc1S(N)(=O)=O; -9.1

Kindly note: MST4 (human) (UniProt Q9P289), COc1cc2c(Oc3ccc4[nH]c(C)cc4c3F)ncnc2cc1OCCCN1CCCC1 , inhibition value reported: -7.3

Kindly note: MST4 (human) (UniProt Q9P289), CNC(=O)c1ccccc1Sc1ccc2c(/C=C/c3ccccn3)n[nH]c2c1 , inhibition value reported: -8

----------
Recorded inhibition by entry
Target: UniProt:Q9H093
Sequence (Q9H093 whole entry, looked up): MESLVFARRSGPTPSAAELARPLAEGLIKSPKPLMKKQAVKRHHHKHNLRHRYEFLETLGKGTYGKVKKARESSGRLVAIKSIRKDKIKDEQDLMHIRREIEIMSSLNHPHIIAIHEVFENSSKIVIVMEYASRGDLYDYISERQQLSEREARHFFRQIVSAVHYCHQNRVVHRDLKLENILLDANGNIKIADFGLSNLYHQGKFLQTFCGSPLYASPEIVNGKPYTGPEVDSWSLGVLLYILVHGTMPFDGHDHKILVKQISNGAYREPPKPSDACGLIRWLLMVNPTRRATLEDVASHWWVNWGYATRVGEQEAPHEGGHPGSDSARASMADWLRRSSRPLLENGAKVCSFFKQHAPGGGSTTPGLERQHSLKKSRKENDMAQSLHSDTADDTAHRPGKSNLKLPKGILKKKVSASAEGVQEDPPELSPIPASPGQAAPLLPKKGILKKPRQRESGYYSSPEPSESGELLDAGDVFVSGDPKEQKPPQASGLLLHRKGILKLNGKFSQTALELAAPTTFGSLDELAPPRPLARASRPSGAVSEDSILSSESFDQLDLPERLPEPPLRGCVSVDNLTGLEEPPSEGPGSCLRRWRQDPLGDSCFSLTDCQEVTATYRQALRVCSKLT
Assay: Caliper, Mobility shift assay off-chip
Details: compound 0.2 µM
Report as a plain number; the unit % is understood.

COc1cc2c(Oc3ccc4[nH]c(C)cc4c3F)ncnc2cc1OCCCN1CCCC1; -17.5

Summary for this compound, Cc1ccc(Nc2nccc(N(C)c3ccc4c(C)n(C)nc4c3)n2)cc1S(N)(=O)=O : inhibition is 6.3

Summary for this compound, CNC(=O)c1cc(Oc2ccc(NC(=O)Nc3ccc(Cl)c(C(F)(F)F)c3)cc2)ccn1 : inhibition is 2.5

Summary for this compound, CCN(CC)CCNC(=O)c1c(C)[nH]c(/C=C2\C(=O)Nc3ccc(F)cc32)c1C : inhibition is 55.7

----------
Target: NTRK1 (human)
Assay: Caliper, Mobility shift assay off-chip
Details: compound 0.2 µM
measurementKind: inhibition (%)
Report as a plain number; the unit % is understood.

Some solved entries appear below for comparison.
COc1cc2c(Oc3ccc4[nH]c(C)cc4c3F)ncnc2cc1OCCCN1CCCC1; 3.9
Cc1ccc(Nc2nccc(N(C)c3ccc4c(C)n(C)nc4c3)n2)cc1S(N)(=O)=O; 16.7
CNC(=O)c1cc(Oc2ccc(NC(=O)Nc3ccc(Cl)c(C(F)(F)F)c3)cc2)ccn1; 37.2

--- query ---
Summary for this molecule, CCN(CC)CCNC(=O)c1c(C)[nH]c(/C=C2\C(=O)Nc3ccc(F)cc32)c1C : inhibition is 99.7

Where do these numbers come from? They come from the kinase profiling compilation of Christmann-Franck et al. (2016).
